- study-system: EAG1 (mEAG1) (Mus musculus)
- Sequence (Q60603 505-702): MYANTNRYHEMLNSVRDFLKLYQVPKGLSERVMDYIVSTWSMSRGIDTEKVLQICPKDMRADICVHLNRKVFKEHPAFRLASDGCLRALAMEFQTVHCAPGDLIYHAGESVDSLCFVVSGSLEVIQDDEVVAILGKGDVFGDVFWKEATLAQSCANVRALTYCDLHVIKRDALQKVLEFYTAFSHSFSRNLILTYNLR
- test-name: tryptophan fluorescence titration of purified C-terminal region; gating effect also seen in inside-out patches
pKd: −log10 of the molar value.
property-name: pKd

Task: Please supply the value of reported pKd for the item `O=c1c(O)c(-c2cc(O)c(O)c(O)c2)oc2cc(O)cc(O)c12`
Output: < 4.00

Reference for the values: paper PMC2932742
